Consider the following variants; for each one, report its one-hybrid fitness for binding parS DNA.
B1: Caulobacter ParB omega fusion; a variant is named by its letters at X, in order, B8GW30 (parent)
chain: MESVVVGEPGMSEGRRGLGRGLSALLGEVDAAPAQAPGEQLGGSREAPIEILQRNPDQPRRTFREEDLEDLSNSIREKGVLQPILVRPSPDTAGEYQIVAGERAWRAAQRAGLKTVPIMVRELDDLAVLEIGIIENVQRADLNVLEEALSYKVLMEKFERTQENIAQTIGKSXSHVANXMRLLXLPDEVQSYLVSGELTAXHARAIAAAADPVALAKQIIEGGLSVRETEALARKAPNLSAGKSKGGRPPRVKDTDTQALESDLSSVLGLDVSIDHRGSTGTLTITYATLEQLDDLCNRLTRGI

- Variants of: B1
- test.name: one-hybrid fitness for binding parS DNA (scaled: cognate 1, non-cognate 0); higher = stronger binding
- applied.conditions: with parS DNA site
The full ranking holds about 81,000 sequences; the median of “one-hybrid fitness for binding parS DNA” is about -0.17, and the highest 2% start at about 0.51. The full list was thinned out, with the highest values kept by preference.

Q: Retrieve one-hybrid fitness for binding parS DNA measured for IHAA and print it.
Result: ≤ 0.2

Q: Please list one-hybrid fitness for binding parS DNA recorded for the variant RKNA
Result: 0.834

Q: Find the measured one-hybrid fitness for binding parS DNA of WILE and report it.
Result: ≤ 0.2

Q: Answer with the recorded one-hybrid fitness for binding parS DNA of GGAM only.
Result: ≤ 0.2

Q: Note one-hybrid fitness for binding parS DNA for the variant shown: NLQR
Result: ≤ 0.2

Q: For the variant RMEI , report one-hybrid fitness for binding parS DNA.
Result: ≤ 0.2

Q: For the variant RHNI , give its reported one-hybrid fitness for binding parS DNA.
Result: ≤ 0.2

Q: Report measured one-hybrid fitness for binding parS DNA; entry is DNGY
Result: ≤ 0.2

Q: Respond only with one-hybrid fitness for binding parS DNA recorded for RCIT
Result: 0.78

Q: Given the variant RIED , write its reported one-hybrid fitness for binding parS DNA.
Result: ≤ 0.2

Q: Output measured one-hybrid fitness for binding parS DNA for this item: DSFI
Result: ≤ 0.2

Q: Item NHVC : provide one-hybrid fitness for binding parS DNA
Result: ≤ 0.2

Q: Give a short answer stating reported one-hybrid fitness for binding parS DNA for RHPT .
Result: 0.336

Q: Provide only the value of recorded one-hybrid fitness for binding parS DNA for RHND
Result: ≤ 0.2

Q: Report measured one-hybrid fitness for binding parS DNA; entry is RFIS
Result: 0.777

Q: Using known records, supply one-hybrid fitness for binding parS DNA for LHAG
Result: ≤ 0.2

Q: Name the recorded one-hybrid fitness for binding parS DNA of the item RVAD in your answer.
Result: ≤ 0.2

Q: Given the variant RQAN , write its reported one-hybrid fitness for binding parS DNA.
Result: 0.419

Q: Supply one-hybrid fitness for binding parS DNA value. Item: RFIP
Result: ≤ 0.2

Q: Return one-hybrid fitness for binding parS DNA for the following variant: TPYC
Result: ≤ 0.2

Q: Look up and state reported one-hybrid fitness for binding parS DNA for RYHV
Result: ≤ 0.2

Q: Look up and state reported one-hybrid fitness for binding parS DNA for RVFC
Result: 0.972

Q: Identify measured one-hybrid fitness for binding parS DNA associated with RKRD
Result: ≤ 0.2

Q: Fill in reported one-hybrid fitness for binding parS DNA for this entry: CIDV
Result: ≤ 0.2

Q: Tell me its one-hybrid fitness for binding parS DNA given RNQM as the entry.
Result: 0.228

Q: Tell me measured one-hybrid fitness for binding parS DNA for RNHT please.
Result: 0.723

Q: Read off the recorded one-hybrid fitness for binding parS DNA for RFWP
Result: ≤ 0.2

Q: Supply one-hybrid fitness for binding parS DNA value. Item: REIT
Result: ≤ 0.2

Q: Return the recorded one-hybrid fitness for binding parS DNA value; entry: RKRP
Result: ≤ 0.2

Q: Supply measured one-hybrid fitness for binding parS DNA of YATP in your reply.
Result: ≤ 0.2

Q: Quickly give me recorded one-hybrid fitness for binding parS DNA for RKHG
Result: 0.925

Q: Annotate the variant CSDF with its measured one-hybrid fitness for binding parS DNA.
Result: ≤ 0.2

Q: Provide only the value of recorded one-hybrid fitness for binding parS DNA for EVTM
Result: ≤ 0.2

Q: Answer with the recorded one-hybrid fitness for binding parS DNA for the variant listed here: ANER
Result: ≤ 0.2

Q: Name the recorded one-hybrid fitness for binding parS DNA of the variant listed here: AAYP
Result: ≤ 0.2

Q: Tell me one-hybrid fitness for binding parS DNA reported for PRNG
Result: ≤ 0.2

Q: Return reported one-hybrid fitness for binding parS DNA. Input variant: RIEG
Result: 0.771

Q: For the variant YQQG , report one-hybrid fitness for binding parS DNA.
Result: ≤ 0.2

Q: Quickly give me recorded one-hybrid fitness for binding parS DNA for RCPL
Result: ≤ 0.2

Q: Give reported one-hybrid fitness for binding parS DNA value for RKCQ
Result: ≤ 0.2

Q: For the variant DLTA , give its reported one-hybrid fitness for binding parS DNA.
Result: ≤ 0.2

Q: Please supply the value of reported one-hybrid fitness for binding parS DNA for the item IMTG
Result: ≤ 0.2

Q: # return recorded one-hybrid fitness for binding parS DNA for input TAFI
Result: ≤ 0.2

Q: Tell us which one-hybrid fitness for binding parS DNA value is on record for DPAI
Result: ≤ 0.2

Q: Look up one-hybrid fitness for binding parS DNA of RFPG and report it.
Result: 0.502

Q: Given RLTA , respond with its one-hybrid fitness for binding parS DNA.
Result: 0.599

Q: Identify measured one-hybrid fitness for binding parS DNA corresponding to AKRC
Result: ≤ 0.2

Q: Supply measured one-hybrid fitness for binding parS DNA of REHK in your reply.
Result: ≤ 0.2

Q: Answer with reported one-hybrid fitness for binding parS DNA of RSPT
Result: 0.372

Q: Please list one-hybrid fitness for binding parS DNA recorded for the variant RGIT
Result: 0.278

Q: Respond only with one-hybrid fitness for binding parS DNA recorded for RAEG
Result: 0.852

Q: Give reported one-hybrid fitness for binding parS DNA value for RCML
Result: 0.201

Q: Tell me one-hybrid fitness for binding parS DNA reported for RVAC
Result: 0.982

Q: Tell us which one-hybrid fitness for binding parS DNA value is on record for MGVN
Result: ≤ 0.2

Q: Provide measured one-hybrid fitness for binding parS DNA value, entry: RKHF
Result: ≤ 0.2

Q: Return the recorded one-hybrid fitness for binding parS DNA value; entry: RQWC
Result: 0.797

Q: Provide one value: measured one-hybrid fitness for binding parS DNA of LTPR
Result: ≤ 0.2

Q: Please report one-hybrid fitness for binding parS DNA for the following variant: KDHC
Result: ≤ 0.2

Q: Return value of one-hybrid fitness for binding parS DNA for input RFIG , no commentary.
Result: 0.685

Q: Give recorded one-hybrid fitness for binding parS DNA. GWNS
Result: ≤ 0.2

Q: Give the reported one-hybrid fitness for binding parS DNA for this variant. RNLP
Result: ≤ 0.2

Q: Fill in reported one-hybrid fitness for binding parS DNA for this entry: CHTY
Result: ≤ 0.2

Q: Provide one value: measured one-hybrid fitness for binding parS DNA of PIET
Result: ≤ 0.2

Q: Write down one-hybrid fitness for binding parS DNA measured for item TAPE
Result: ≤ 0.2

Q: Fill in one-hybrid fitness for binding parS DNA for record VFKT
Result: ≤ 0.2

Q: Tell me measured one-hybrid fitness for binding parS DNA for LDYT please.
Result: ≤ 0.2

Q: Indicate the recorded one-hybrid fitness for binding parS DNA value for this variant: RKEF
Result: ≤ 0.2

Q: Note one-hybrid fitness for binding parS DNA for the variant shown: NWKR
Result: ≤ 0.2

Q: Please list one-hybrid fitness for binding parS DNA recorded for the variant NKNA
Result: ≤ 0.2

Q: Retrieve one-hybrid fitness for binding parS DNA measured for RQAT and print it.
Result: 0.884

Q: Return one-hybrid fitness for binding parS DNA for the following variant: RVAP
Result: ≤ 0.2

Q: Identify measured one-hybrid fitness for binding parS DNA corresponding to PYGM
Result: ≤ 0.2

Q: Dear colleague, please send me the reported one-hybrid fitness for binding parS DNA for RVFR when you can.
Result: ≤ 0.2

Q: Specify reported one-hybrid fitness for binding parS DNA for the variant shown: RFID
Result: ≤ 0.2

Q: Give recorded one-hybrid fitness for binding parS DNA. RKHR
Result: ≤ 0.2

Q: Give reported one-hybrid fitness for binding parS DNA value for SRTI
Result: ≤ 0.2

Q: Check the records and state one-hybrid fitness for binding parS DNA for VENG
Result: ≤ 0.2

Q: Look up one-hybrid fitness for binding parS DNA of RNGR and report it.
Result: ≤ 0.2

Q: State its one-hybrid fitness for binding parS DNA for this variant: ATMR
Result: ≤ 0.2

Q: Tell us which one-hybrid fitness for binding parS DNA value is on record for RHDP
Result: ≤ 0.2

Q: Specify one-hybrid fitness for binding parS DNA for SPPW and stop.
Result: ≤ 0.2

Q: Return one-hybrid fitness for binding parS DNA for the following variant: RFWN
Result: ≤ 0.2

Q: Provide measured one-hybrid fitness for binding parS DNA value, entry: RNLH
Result: ≤ 0.2

Q: Supply one-hybrid fitness for binding parS DNA value. Item: TRWA
Result: ≤ 0.2

Q: Give reported one-hybrid fitness for binding parS DNA value for RVDE
Result: ≤ 0.2

All values here come from a collection of fitness landscapes (doi:10.1016/j.celrep.2020.107928).
